Test: Liver S9 stability, human
Format: in vitro ADME
result.type: half-life

Recorded half-life of Cc1ccc(O)cc1Nc1ccnc(Nc2cccc(S(C)(=O)=O)c2)n1 [Compound 1] , please.
< 10 min

###

Assay: PK following IV dosing in male SD rats
Conditions: rat, in vivo, IV 1 mg/kg, read-out: VSS
result.type: Vd (L/kg)
# unit: L/kg | format: bare number

Recorded Vd of Cc1ccc(O)cc1Nc1ccnc(Nc2cccc(S(C)(=O)=O)c2)n1 , please.
2.11

###

Assay: PK following IV dosing in male SD rats
Details: rat, in vivo, IV 1 mg/kg
result.type: C0 (ng/mL)
# unit: ng/mL | format: bare number

Recorded C0 of Cc1ccc(O)cc1Nc1ccnc(Nc2cccc(S(C)(=O)=O)c2)n1 , please.
548

###

Test: Caco-2 permeability
Assay type: in vitro ADME
Conditions: human, Caco-2; Bi-directional; read-out: Caco-2 permeability, bidirectional efflux ratio
result.type: efflux ratio
// return a plain number; no unit text

Recorded efflux ratio of Cc1ccc(O)cc1Nc1ccnc(Nc2cccc(S(C)(=O)=O)c2)n1 , please.
4.27

###

Molecular target: p38-alpha (Homo sapiens (Human), UniProt Q16539)
Sequence (Q16539 whole entry): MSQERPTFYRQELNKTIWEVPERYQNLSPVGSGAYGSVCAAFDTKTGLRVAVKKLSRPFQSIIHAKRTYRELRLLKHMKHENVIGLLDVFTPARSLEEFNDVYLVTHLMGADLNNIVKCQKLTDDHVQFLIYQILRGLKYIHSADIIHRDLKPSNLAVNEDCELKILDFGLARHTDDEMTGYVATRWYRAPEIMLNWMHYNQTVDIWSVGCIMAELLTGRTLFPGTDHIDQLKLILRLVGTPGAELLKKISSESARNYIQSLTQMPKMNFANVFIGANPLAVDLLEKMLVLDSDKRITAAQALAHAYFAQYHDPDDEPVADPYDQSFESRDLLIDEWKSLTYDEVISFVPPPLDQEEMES
Experiment: Binding to p38-alpha, % of DMSO control (kinase binding screen)
Conditions: smaller numbers indicate stronger binding; screened at 1000 nM
result.type: Binding affinity score for p38-alpha as percent relative to DMSO control (% Ctrl)
# unit: % Ctrl | format: bare number

Solved entries (count: 2):
Cc1ccc(O)cc1Nc1ccnc(Nc2cccc(S(C)(=O)=O)c2)n1 : 0.5
COc1ccc(S(N)(=O)=O)cc1Nc1nccc(N(C)c2ccc(N)cc2)n1 : 83

Recorded Binding affinity score for p38-alpha as percent relative to DMSO control of COc1cc(Nc2nccc(Nc3ccc(N)cc3)n2)cc(S(C)(=O)=O)c1 , please.
87

Lookup Cc1ccc(O)cc1Nc1ccnc(Nc2ccc(C(N)=O)cc2)n1
30

###

Assay: PK following IV dosing in male SD rats
Details: rat, in vivo, IV 1 mg/kg
result.type: AUC(0-t) (ng·h/mL)
# unit: ng·h/mL | format: bare number

Recorded AUC(0-t) of Cc1ccc(O)cc1Nc1ccnc(Nc2cccc(S(C)(=O)=O)c2)n1 , please.
122

###

System: 97 kinases (90 WT kinase and 7 mutants)
Assay: Kinase selectivity profiling (ScanEDGE, DiscoveRx) competition binding, qPCR readout
Details: number of hits/number of assays, excluding mutants; 1000 nM
This section presents molecules with their documented Selectivity Score S(35) values.

Solved entries (count: 3):
COc1ccc(S(N)(=O)=O)cc1Nc1nccc(N(C)c2ccc(N)cc2)n1 [Compound 3] : 0.178
Cc1ccc(O)cc1Nc1ccnc(Nc2ccc(C(N)=O)cc2)n1 [Compound 2] : 0.244
Cc1ccc(O)cc1Nc1ccnc(Nc2cccc(S(C)(=O)=O)c2)n1 [Compound 1] : 0.322

Moving on to the next molecule.
Recorded Selectivity Score S(35) of COc1cc(Nc2nccc(Nc3ccc(N)cc3)n2)cc(S(C)(=O)=O)c1 [Compound 4] , please.
0.233

###

Test system: 97 kinases (90 WT kinase and 7 mutants)
Assay: Kinase selectivity profiling (ScanEDGE, DiscoveRx) competition binding, qPCR readout
Details: screened at 1000 nM; kinases inhibited by >99%
This section presents compounds with their documented # of Hits, S(1) values.
// return a plain number; no unit text

COc1ccc(S(N)(=O)=O)cc1Nc1nccc(N(C)c2ccc(N)cc2)n1 [Compound 3] : 5
Cc1ccc(O)cc1Nc1ccnc(Nc2ccc(C(N)=O)cc2)n1 [Compound 2] : 3
Cc1ccc(O)cc1Nc1ccnc(Nc2cccc(S(C)(=O)=O)c2)n1 [Compound 1] : 7

Recorded # of Hits, S(1) of COc1cc(Nc2nccc(Nc3ccc(N)cc3)n2)cc(S(C)(=O)=O)c1 [Compound 4] , please.
2
